molecular target: DR4Dw14 (DRA1*0101 DRB1*0404) (Homo sapiens, UniProt P01903+P01911, A100R/A169T/F76Y/I96L/K127E/L162R/M171V/N62H/P40V/Q125Y/R42H/S133A/S149N/S66Y/V209L/W38E); assay: Competitive binding to MHC-II protein DR4Dw14; details: 0404; read-out: Protein binding IC50 (nM) 0404
Numbered stars: 1 amine (or outer) side, 2 acyl side, 3 side chain; on linkers, the order of the positions; unused ones are H or OH. Square brackets hold non-standard residues; d marks the D form. Peptide text beside a SMILES is read from it. * marks the point of attachment. ξ: configuration not given here. X1 = CC(C)c1oc([C@H](CO)N[*:1])nc1C(=O)[*:2]; Pro(3R-Ph) = O=C(O)[C@H]1NCC[C@@H]1c1ccccc1; Tic = O=C(O)[C@@H]1Cc2ccccc2CN1; Cha = N[C@@H](CC1CCCCC1)C(=O)O; NHPhenethyl = c1ccc(CCN*)cc1; ξDisc = O=C(O)C1NCc2ccccc21; X4 = OCCOCCN(CCc1ccccc1)*; Nle = CCCC[C@H](N)C(=O)O
reported_metric: IC50 (nM)
I only need the number, in nM, no unit after it.

Sample CSCC[C@H](NC(=O)[C@@H]1Cc2ccccc2CN1C(=O)[C@H](CCCNC(=N)N)NC(=O)[C@H](CC1CCCCC1)NC(C)=O)C(=O)N1CC[C@H](c2ccccc2)[C@H]1C(=O)N[C@@H](CO)c1nc(C(=O)N(C)C)c(C(C)C)o1 [Compound P33] (Ac-[Cha]R[Tic]M[Pro(3R-Ph)][X1]-NMe2) ; IC50 observed: 220

Sample CSCC[C@H](NC(=O)C1c2ccccc2CN1C(=O)[C@H](CCCNC(=N)N)NC(=O)[C@H](CC1CCCCC1)NC(C)=O)C(N)=O (stereo partly drawn) [Compound P12-1, Ac-Cha-Arg-Disc-Met-NH2] (Ac-[Cha]R[ξDisc]M-NH2) ; IC50 observed: 860

Sample CCCC[C@H](NC(=O)[C@@H]1Cc2ccccc2CN1C(=O)[C@H](CCCNC(=N)N)NC(=O)[C@H](CC1CCCCC1)NC(C)=O)C(=O)N(CCOCCO)CCc1ccccc1 [Compound P88] (Ac-[Cha]R[Tic][Nle]-X4) ; IC50 observed: 5700

Sample CCCC[C@H](NC(=O)[C@@H]1Cc2ccccc2CN1C(=O)[C@H](CCCNC(=N)N)NC(=O)[C@H](CC1CCCCC1)NC(C)=O)C(=O)NCCc1ccccc1 [Compound P82, Ac-Cha-Arg-Tic-Nle-N(H)CH2CH2Ph] (Ac-[Cha]R[Tic][Nle]-NHPhenethyl) ; IC50 observed: 14000

----------
test: Stability of compounds in rat blood plasma; type: in vitro ADME
Numbered stars: 1 amine (or outer) side, 2 acyl side, 3 side chain; on linkers, the order of the positions; unused ones are H or OH. Square brackets hold non-standard residues; d marks the D form. Peptide text beside a SMILES is read from it. * marks the point of attachment. ξ: configuration not given here. Gly(1-amidinopiperidin-4-yl) = N=C(N)N1CCC([C@H](N)C(=O)O)CC1; X1 = CC(C)c1oc([C@H](CO)N[*:1])nc1C(=O)[*:2]; Pro(3R-Ph) = O=C(O)[C@H]1NCC[C@@H]1c1ccccc1; Tic = O=C(O)[C@@H]1Cc2ccccc2CN1; Cha = N[C@@H](CC1CCCCC1)C(=O)O; ξDisc = O=C(O)C1NCc2ccccc21; Nle = CCCC[C@H](N)C(=O)O; X6 = OCCN(CCc1ccccc1)*; X3 = OCCOCCN*
Could you please report measured Stability (Arbitrary units) Rat 24 h for the items listed next?
I only need the number, in Arbitrary units, no unit after it.

Sample CCCC[C@H](NC(=O)C1c2ccccc2CN1C(=O)[C@@H](NC(=O)[C@H](CC1CCCCC1)NC(C)=O)C1CCN(C(=N)N)CC1)C(=O)N(C)Cc1ccccc1 (single isomer, unassigned) [Compound P76-1, Ac-Cha-Gpg-Disc-Nle-N(Me)Bn] ; Stability (Arbitrary units) Rat 24 h observed: 84

Sample CCCC[C@H](NC(=O)[C@@H]1Cc2ccccc2CN1C(=O)[C@H](CCCNC(=N)N)NC(=O)[C@H](CC1CCCCC1)NC(C)=O)C(=O)N1CC[C@H](c2ccccc2)[C@H]1C(=O)N[C@@H](CO)c1nc(C(=O)N(C)C)c(C(C)C)o1 [Compound P51] (Ac-[Cha]R[Tic][Nle][Pro(3R-Ph)][X1]-NMe2) ; Stability (Arbitrary units) Rat 24 h observed: 60

Sample CCCC[C@H](NC(=O)C1c2ccccc2CN1C(=O)[C@@H](NC(=O)[C@H](CC1CCCCC1)NC(C)=O)C1CCN(C(=N)N)CC1)C(=O)N1CC[C@H](c2ccccc2)[C@H]1C(=O)N[C@@H](CO)c1nc(C(=O)N(C)C)c(C(C)C)o1 (stereo partly drawn) [Compound P81-1] (Ac-[Cha][Gly(1-amidinopiperidin-4-yl)][ξDisc][Nle][Pro(3R-Ph)][X1]-NMe2) ; Stability (Arbitrary units) Rat 24 h observed: 112

Sample CCCC[C@H](NC(=O)[C@@H]1Cc2ccccc2CN1C(=O)[C@H](CCCNC(=N)N)NC(=O)[C@H](CC1CCCCC1)NC(C)=O)C(=O)N(CCO)CCc1ccccc1 [Compound P81, Ac-Cha-Arg-Tic-Nle-N(CH2CH2OH)CH2CH2Ph] (Ac-[Cha]R[Tic][Nle]-X6) ; Stability (Arbitrary units) Rat 24 h observed: 76

Sample CSCC[C@H](NC(=O)[C@@H]1Cc2ccccc2CN1C(=O)[C@@H](NC(=O)[C@H](CC1CCCCC1)NC(C)=O)C1CCN(C(=N)N)CC1)C(=O)N1CC[C@H](c2ccccc2)[C@H]1C(N)=O [Compound P80, Ac-Cha-Gpg-Tic-Met-βPhProNH2] (Ac-[Cha][Gly(1-amidinopiperidin-4-yl)][Tic]M[Pro(3R-Ph)]-NH2) ; Stability (Arbitrary units) Rat 24 h observed: 39

Sample CSCC[C@H](NC(=O)C1c2ccccc2CN1C(=O)[C@H](CCCNC(=N)N)NC(=O)[C@H](CC1CCCCC1)NC(C)=O)C(=O)N1CC[C@H](c2ccccc2)[C@H]1C(=O)N[C@@H](CO)c1nc(C(=O)N(C)C)c(C(C)C)o1 (stereo partly drawn) [Compound P40-1] (Ac-[Cha]R[ξDisc]M[Pro(3R-Ph)][X1]-NMe2) ; Stability (Arbitrary units) Rat 24 h observed: 71

Sample CCCC[C@H](NC(=O)[C@@H]1Cc2ccccc2CN1C(=O)[C@@H](NC(=O)[C@H](CC1CCCCC1)NC(C)=O)C1CCN(C(=N)N)CC1)C(=O)NCCOCCO [Compound P70, Ac-Cha-Gpg-Tic-Nle-N(H)CH2CH2OCH2CH2OH] (Ac-[Cha][Gly(1-amidinopiperidin-4-yl)][Tic][Nle]-X3) ; Stability (Arbitrary units) Rat 24 h observed: 65
